target: T1, monoclonal antibody 3C4; test: phage ELISA, coated mAb 3C4, 10^8 phagemid per well
T1 construct: also called mAb 3C4; 3C4 (3CY)
T1 sequence (VH, as listed by the source, chain 1 of 2): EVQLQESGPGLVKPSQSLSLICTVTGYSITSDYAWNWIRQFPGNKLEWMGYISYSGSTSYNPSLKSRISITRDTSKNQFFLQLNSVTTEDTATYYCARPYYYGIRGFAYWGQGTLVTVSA
T1 sequence (VL, as listed by the source, chain 2 of 2): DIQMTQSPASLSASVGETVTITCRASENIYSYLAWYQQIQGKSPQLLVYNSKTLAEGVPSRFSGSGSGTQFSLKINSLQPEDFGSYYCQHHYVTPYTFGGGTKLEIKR
Positions of bridges follow the written chain, without caps; N, C: chain ends. No end group written: not given here.
test readout: ELISA (absorbance units)

Incoming: Provide only the value of recorded ELISA (absorbance units) for CSFFYSLCYCWCS (disulfide (positions not given here); also: four Cys, disulfide pairing not given here, also called CSI-31p) [phagemid CS1-31p (phage-displayed disulfide cyclized 13 mer peptide)]
Outgoing: 0.152 absorbance units

Incoming: Provide only the value of recorded ELISA (absorbance units) for CSFRYQWDMFRCS (disulfide 1-12 (inferred); also: displayed on phage (phagemid)) [phagemid CS1-11p (phage-displayed disulfide cyclized 13 mer peptide)]
Outgoing: 0.348 absorbance units

Incoming: Provide only the value of recorded ELISA (absorbance units) for CSLFYLWDQDRCS (disulfide 1-12 (inferred); also: displayed on phage (phagemid), coat fusion not given here) [phagemid CS1-2p (phage-displayed disulfide cyclized 13 mer peptide)]
Outgoing: 0.245 absorbance units

Incoming: Provide only the value of recorded ELISA (absorbance units) for CSGLYPWDMFRCS (disulfide 1-12 (inferred); also: displayed on phage (phagemid)) [phagemid CS1-9p (phage-displayed disulfide cyclized 13 mer peptide)]
Outgoing: 0.259 absorbance units

Incoming: Provide only the value of recorded ELISA (absorbance units) for CSGLYPWDYFMCS (disulfide 1-12 (inferred); also: displayed on phage (phagemid)) [phagemid CS1-29p (phage-displayed disulfide cyclized 13 mer peptide)]
Outgoing: 0.156 absorbance units

Incoming: Provide only the value of recorded ELISA (absorbance units) for CSFRYLWDQDRCS (disulfide 1-12 (inferred); also: displayed on phage (phagemid)) [phagemid CS1-6p (phage-displayed disulfide cyclized 13 mer peptide)]
Outgoing: 0.406 absorbance units
